Data credit: patent US7056940B2

Tested on: Sweetpotato Whitefly (Bemisia tabacia)
Test method notes: Insecticidal test for sweetpotato whitefly, spray on cotton plants
Type: in vivo
Design: key: A: 90–100; B: 80–89; C: 70–79; D: 60–69; E: 50–59; F: less than 50; G: Inactive
Details: 200 ppm spray, 13 days, large nymphs
Readout name: WF: activity at 200 ppm against whitefly (% control rating)

| Compound | Measured result |
| --- | --- |
| Cn1nc(-c2c(F)cccc2Cl)nc1-c1sc(-c2ccc(Br)cc2)cc1Cl | G |
| Cc1c(-c2nc(-c3c(F)cccc3Cl)nn2C)csc1-c1ccc(OC(C)C)cc1 | G |
| CSc1ccc(-c2scc(-c3nc(-c4c(F)cccc4Cl)nn3C)c2C)cc1 | G |
| Cc1cc(-c2ccc(Cl)c(F)c2)sc1-c1nc(-c2c(F)cccc2Cl)nn1C | G |
| Cc1c(-c2ccc(OC(F)(F)C(F)C(F)(F)F)cc2)csc1-c1nc(-c2c(F)cccc2Cl)nn1C (stereo not drawn) | A (90–100) |
| Cn1nc(-c2c(F)cccc2Cl)nc1-c1cc(-c2ccc3c(c2)OCC3)sc1Cl | G |
| Cc1cc(-c2ccc(Cl)cc2F)sc1-c1nc(-c2c(F)cccc2Cl)nn1C | G |
| Cn1nc(-c2c(F)cccc2Cl)nc1-c1csc(-c2ccc(C(F)(F)F)cc2F)c1 | F (less than 50) |
| Cc1c(-c2nc(-c3c(F)cccc3Cl)nn2C)csc1-c1ccc(OC(F)(F)F)cc1F | A (90–100) |
| Cc1c(-c2nc(-c3c(F)cccc3Cl)nn2C)csc1-c1ccc(OCC(F)(F)F)cc1 | A (90–100) |
| Cn1nc(-c2c(F)cccc2Cl)nc1-c1cc(-c2cccc(OC(F)(F)F)c2)sc1Cl | G |
| Cc1c(-c2ccc(OC(F)(F)C(F)Br)cc2)csc1-c1nc(-c2c(F)cccc2Cl)nn1C (stereo not drawn) | A (90–100) |
| Cc1sc(-c2ccc(OC(F)(F)C(F)C(F)(F)F)cc2)c(C)c1-c1nc(-c2c(F)cccc2Cl)nn1C (stereo not drawn) | G |
| Cc1cc(-c2ccc(OC(F)(F)C(F)C(F)(F)F)cc2)sc1-c1nc(-c2c(F)cccc2Cl)nn1C (stereo not drawn) | F (less than 50) |
| Cc1c(-c2nc(-c3c(F)cccc3F)nn2C)csc1-c1ccc(C(F)(F)F)cc1Cl | G |
| Cc1c(-c2nc(-c3c(F)cccc3Cl)nn2C)csc1-c1ccc(OC2CCCCO2)cc1 (stereo not drawn) | F (less than 50) |

###

Tested on: Cotton Aphid (Aphis gossypii)
Test method notes: Insecticidal test for cotton aphid, spray on infested squash cotyledons
Format: in vivo
Details: 50 ppm spray, 3 days
Readout name: CA: activity at 50 ppm against cotton aphid (% control rating)

| Compound | Tgt | Measured result |
| --- | --- | --- |
| Cc1c(-c2nc(-c3c(F)cccc3Cl)nn2C)csc1-c1ccc(OC(F)(F)C(Cl)Cl)cc1 | Cotton Aphid (Aphis gossypii) | B (80–89) |
| Cc1sc(-c2ccc(OC(F)(F)C(F)C(F)(F)F)cc2)c(C)c1-c1nc(-c2c(F)cccc2Cl)nn1C (stereo not drawn) | Cotton Aphid (Aphis gossypii) | E (50–59) |
| Cc1c(-c2nc(-c3c(F)cccc3Cl)nn2C)csc1-c1ccc(SCF)cc1 | Cotton Aphid (Aphis gossypii) | B (80–89) |
| Cn1nc(-c2c(F)cccc2Cl)nc1-c1cc(-c2ccc(Cl)cc2F)sc1Cl | Cotton Aphid (Aphis gossypii) | F (less than 50) |
| Cc1c(-c2nc(-c3c(F)cccc3Cl)nn2C)csc1-c1ccc(Cl)c(F)c1 | Cotton Aphid (Aphis gossypii) | A (90–100) |
| Cc1cc(-c2ccc(OC(F)(F)C(F)Cl)cc2)sc1-c1nc(-c2c(F)cccc2Cl)nn1C (stereo not drawn) | Cotton Aphid (Aphis gossypii) | D (60–69) |
| Cn1nc(-c2c(F)cccc2Cl)nc1-c1sc(-c2ccc(OC(F)(F)C(F)Br)cc2)cc1Cl (stereo not drawn) | Cotton Aphid (Aphis gossypii) | E (50–59) |
| Cc1c(-c2nc(-c3c(F)cccc3Cl)nn2C)csc1-c1ccc(F)cc1 | Cotton Aphid (Aphis gossypii) | B (80–89) |
| Cn1nc(-c2c(F)cccc2Cl)nc1-c1sc(-c2ccc(Br)cc2)cc1Cl | Cotton Aphid (Aphis gossypii) | B (80–89) |
| Cc1sc(-c2ccc(C(F)(F)F)cc2F)cc1-c1nc(-c2c(F)cccc2Cl)nn1C | Cotton Aphid (Aphis gossypii) | F (less than 50) |
| Cc1cc(-c2ccc(OC(F)(F)C(Cl)Cl)cc2)sc1-c1nc(-c2c(F)cccc2Cl)nn1C | Cotton Aphid (Aphis gossypii) | A (90–100) |
| Cc1c(-c2nc(-c3c(F)cccc3Cl)nn2C)csc1-c1ccc(OC(C)C)cc1 | Cotton Aphid (Aphis gossypii) | A (90–100) |
| Cc1c(-c2nc(-c3c(F)cccc3Cl)nn2C)csc1-c1ccc(OC(F)(F)C(F)Br)cc1 (stereo not drawn) | Cotton Aphid (Aphis gossypii) | A (90–100) |
| Cc1c(-c2ccc(OC(F)(F)C(F)Br)cc2)csc1-c1nc(-c2c(F)cccc2Cl)nn1C (stereo not drawn) | Cotton Aphid (Aphis gossypii) | A (90–100) |
| Cc1c(-c2nc(-c3c(F)cccc3Cl)nn2C)csc1-c1ccc(Cl)cc1F | Cotton Aphid (Aphis gossypii) | A (90–100) |
| Cc1c(-c2nc(-c3c(F)cccc3Cl)nn2C)csc1-c1ccc(OC2CCCCO2)cc1 (stereo not drawn) | Cotton Aphid (Aphis gossypii) | B (80–89) |
| Cc1cc(-c2ccc(Cl)cc2F)sc1-c1nc(-c2c(F)cccc2Cl)nn1C | Cotton Aphid (Aphis gossypii) | C (70–79) |
| Cc1sc(-c2cccc(OC(F)(F)F)c2)cc1-c1nc(-c2c(F)cccc2Cl)nn1C | Cotton Aphid (Aphis gossypii) | A (90–100) |
| Cc1cc(-c2ccc3c(c2)COC3)sc1-c1nc(-c2c(F)cccc2Cl)nn1C | Cotton Aphid (Aphis gossypii) | D (60–69) |
| COCCOc1cccc(-c2cc(C)c(-c3nc(-c4c(F)cccc4Cl)nn3C)s2)c1 | Cotton Aphid (Aphis gossypii) | B (80–89) |
| Cc1c(-c2nc(-c3c(F)cccc3Cl)nn2C)csc1-c1cccc(C(F)(F)F)c1F | Cotton Aphid (Aphis gossypii) | A (90–100) |
| CC(C)=COc1ccc(-c2scc(-c3nc(-c4c(F)cccc4Cl)nn3C)c2C)cc1 | Cotton Aphid (Aphis gossypii) | A (90–100) |
| COCCOc1ccc(-c2scc(-c3nc(-c4c(F)cccc4Cl)nn3C)c2C)cc1 | Cotton Aphid (Aphis gossypii) | C (70–79) |
| Cc1cc(-c2ccc(Cl)c(F)c2)sc1-c1nc(-c2c(F)cccc2Cl)nn1C | Cotton Aphid (Aphis gossypii) | A (90–100) |
| Cc1c(-c2nc(-c3c(F)cccc3Cl)nn2C)csc1-c1ccc(OC(F)(F)C(F)Cl)cc1 (stereo not drawn) | Cotton Aphid (Aphis gossypii) | B (80–89) |
| Cc1c(-c2nc(-c3c(F)cccc3Cl)nn2C)csc1-c1ccc(OCC(F)(F)F)cc1 | Cotton Aphid (Aphis gossypii) | B (80–89) |
| Cc1c(-c2ccc(OC(F)(F)C(F)Cl)cc2)csc1-c1nc(-c2c(F)cccc2Cl)nn1C (stereo not drawn) | Cotton Aphid (Aphis gossypii) | B (80–89) |
| Cc1cc(-c2ccc(F)cc2)sc1-c1nc(-c2c(F)cccc2Cl)nn1C | Cotton Aphid (Aphis gossypii) | B (80–89) |
| Cn1nc(-c2c(F)cccc2Cl)nc1-c1csc(-c2ccc(Cl)cc2F)c1 | Cotton Aphid (Aphis gossypii) | B (80–89) |
| CCCOc1ccc(-c2scc(-c3nc(-c4c(F)cccc4Cl)nn3C)c2C)cc1 | Cotton Aphid (Aphis gossypii) | A (90–100) |
| Cc1sc(-c2ccc(Cl)cc2F)cc1-c1nc(-c2c(F)cccc2Cl)nn1C | Cotton Aphid (Aphis gossypii) | B (80–89) |
| Cc1c(-c2nc(-c3c(F)cccc3Cl)nn2C)csc1-c1ccc(Oc2ccccc2)cc1 | Cotton Aphid (Aphis gossypii) | A (90–100) |
| Cc1c(-c2nc(-c3c(F)cccc3Cl)nn2C)csc1-c1cccc(OC(F)(F)F)c1 | Cotton Aphid (Aphis gossypii) | A (90–100) |
| Cc1c(-c2nc(-c3c(F)cccc3Cl)nn2C)csc1-c1cc(C(F)(F)F)ccc1F | Cotton Aphid (Aphis gossypii) | B (80–89) |
| Cc1c(-c2nc(-c3c(F)cccc3F)nn2C)csc1-c1ccc(C(F)(F)F)cc1Cl | Cotton Aphid (Aphis gossypii) | E (50–59) |
| Cn1nc(-c2c(F)cccc2Cl)nc1-c1csc(-c2ccc(C(F)(F)F)cc2F)c1 | Cotton Aphid (Aphis gossypii) | C (70–79) |
| Cc1c(-c2nc(-c3c(F)cccc3Cl)nn2C)sc(Br)c1-c1ccc(OC(F)(F)C(F)Br)cc1 (stereo not drawn) | Cotton Aphid (Aphis gossypii) | B (80–89) |
| Cc1c(-c2nc(-c3c(F)cccc3Cl)nn2C)csc1-c1ccc(OC(F)(F)F)cc1F | Cotton Aphid (Aphis gossypii) | B (80–89) |
| Cc1c(-c2nc(-c3c(F)cccc3Cl)nn2C)csc1-c1ccc(OC(F)(F)CF)cc1 | Cotton Aphid (Aphis gossypii) | A (90–100) |
